The origin of these recorded values is patent US8802674B2.

Listed here are molecules together with their documented Ki.
- target.system: LRRK2 (Homo sapiens (Human), UniProt Q5S007, G2019S)
- Sequence (Q5S007 970-2527 G2019S limits assumed): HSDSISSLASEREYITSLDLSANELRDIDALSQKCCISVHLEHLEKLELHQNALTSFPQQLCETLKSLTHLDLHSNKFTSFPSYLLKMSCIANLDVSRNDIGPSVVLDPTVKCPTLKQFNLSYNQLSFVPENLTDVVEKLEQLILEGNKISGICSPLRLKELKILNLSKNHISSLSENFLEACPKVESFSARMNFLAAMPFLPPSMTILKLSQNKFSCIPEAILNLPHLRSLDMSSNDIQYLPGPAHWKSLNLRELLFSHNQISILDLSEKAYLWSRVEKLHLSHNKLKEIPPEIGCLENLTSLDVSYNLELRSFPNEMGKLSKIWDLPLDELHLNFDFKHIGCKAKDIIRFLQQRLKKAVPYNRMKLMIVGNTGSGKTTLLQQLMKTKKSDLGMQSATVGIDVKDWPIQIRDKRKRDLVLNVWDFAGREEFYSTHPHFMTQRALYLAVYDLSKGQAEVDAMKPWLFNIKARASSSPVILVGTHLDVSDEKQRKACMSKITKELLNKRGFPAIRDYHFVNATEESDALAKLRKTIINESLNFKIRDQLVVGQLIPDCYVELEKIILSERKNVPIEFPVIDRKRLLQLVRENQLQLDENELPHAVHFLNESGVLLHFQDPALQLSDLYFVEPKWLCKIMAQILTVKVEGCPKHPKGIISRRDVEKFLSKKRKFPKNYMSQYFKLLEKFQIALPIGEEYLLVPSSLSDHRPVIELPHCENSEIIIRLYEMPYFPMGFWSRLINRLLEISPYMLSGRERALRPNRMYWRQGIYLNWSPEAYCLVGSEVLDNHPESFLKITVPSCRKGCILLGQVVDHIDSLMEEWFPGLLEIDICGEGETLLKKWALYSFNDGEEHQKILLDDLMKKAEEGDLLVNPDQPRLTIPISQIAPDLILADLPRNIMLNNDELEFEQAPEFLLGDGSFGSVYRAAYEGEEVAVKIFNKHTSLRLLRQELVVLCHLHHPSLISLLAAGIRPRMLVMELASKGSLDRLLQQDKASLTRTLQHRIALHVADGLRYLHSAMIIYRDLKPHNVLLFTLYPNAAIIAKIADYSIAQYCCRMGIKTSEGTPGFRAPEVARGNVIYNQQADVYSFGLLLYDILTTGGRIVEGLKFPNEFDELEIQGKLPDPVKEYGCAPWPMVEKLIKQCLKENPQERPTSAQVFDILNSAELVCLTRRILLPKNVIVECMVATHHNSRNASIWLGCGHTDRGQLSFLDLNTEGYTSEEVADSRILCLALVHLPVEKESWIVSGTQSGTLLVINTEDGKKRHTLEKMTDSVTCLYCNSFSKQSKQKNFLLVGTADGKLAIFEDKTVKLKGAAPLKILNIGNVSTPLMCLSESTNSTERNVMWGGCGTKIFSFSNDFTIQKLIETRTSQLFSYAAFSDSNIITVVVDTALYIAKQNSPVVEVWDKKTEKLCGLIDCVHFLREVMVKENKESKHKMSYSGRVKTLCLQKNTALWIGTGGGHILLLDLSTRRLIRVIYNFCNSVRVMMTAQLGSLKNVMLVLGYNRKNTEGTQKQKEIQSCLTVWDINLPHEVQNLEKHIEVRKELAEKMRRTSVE
- assay.procedure: In Vitro LRRK2 LabChip Assay
- Type: biochemical
- assay.context: Table 4
value.kind: Ki (nM)

CNc1nc(Nc2cc(OC)c(C(N)=O)cc2Cl)ncc1Cl: 9.3
COc1cc(C(=O)N2CCOCC2)ccc1Nc1ncc(Cl)c(NCC2CCOC2)n1 (centres unmarked): 14.1
CNc1nc(Nc2ccc(C(=O)N3CC4CCC(C3)O4)cc2OC)ncc1Cl: 2
COc1cc(C(=O)N2CCOCC2)ccc1Nc1ncc(Cl)c(NC2CCC2)n1: 1.5
CNc1nc(Nc2ccc(C(=O)N3CCCC3)cc2OC)ncc1Cl: 4.7

---

- target.system: LRRK2 (Homo sapiens (Human), UniProt Q5S007, G2019S)
- assay.procedure: In Vitro LRRK2 LabChip Assay
- Format: biochemical
- assay.context: Table 6
Listed here are compounds together with their documented Ki.
value.kind: Ki (nM)

CNc1nc(Nc2cc(OC)c(C(=O)N3CC(C)OC(C)C3)cc2Cl)ncc1C(F)(F)F (stereo not shown): 8
CNc1nc(Nc2cc(OC)c(C(=O)N3CCOCC3)cc2Cl)ncc1Cl: 6
CNc1nc(Nc2ccc(C(=O)NCCOC)cc2OC)ncc1C(F)(F)F: 2.3
CNc1nc(Nc2ccc(C(=O)N3CC(C)OC(C)C3)cc2OC)ncc1C(F)(F)F (stereo not shown): 4.9
CNc1nc(Nc2cc(OC)c(C(=O)N3CCOCC3)cc2Cl)ncc1C(F)(F)F: 2
CCOc1cc(C(=O)N2CCOCC2)c(F)cc1Nc1ncc(C(F)(F)F)c(NC)n1: 9
CCNc1nc(Nc2cc(F)c(C(=O)N3CCOCC3)cc2OCC)ncc1C(F)(F)F: 2.1
CNc1nc(Nc2ccc(C(=O)N3CCOCC3)cc2OCC2CC2)ncc1C(F)(F)F: 6.5
CCNc1nc(Nc2cc(F)c(C(=O)N(C)CCOC)cc2OC)ncc1C(F)(F)F: 1.6
CNc1nc(Nc2ccc(C(=O)N3CCC(OC)CC3)cc2OC)ncc1C(F)(F)F: 1.6

---

- target.system: LRRK2 (Homo sapiens (Human), UniProt Q5S007, G2019S)
- assay.procedure: In Vitro LRRK2 LabChip Assay
- Assay type: biochemical
- assay.context: Table 4
- Protocol: In Vitro LRRK2 LabChip Assay This assay was used to determine a compound's potency in inhibiting activity of LRRK2 by determining, Kiapp, IC50, or percent inhibition values. […] The relative amounts of each were quantitated by fluorescence intensity. LRRK2 Ki was determined according to the equation: Y=V0*(1−((x+Ki*(1+S/Km)+Et)/(2*Et)−(((x+Ki*(1+S/Km)+Et)^2−(4*Et*x))^0.5)/(2*Et))). […] The plate was incubated for 2 hours in the dark. […] Results were read on the LabChip 3000. […]
Listed here are compounds together with their documented Ki.
value.kind: Ki (nM)

CNc1nc(Nc2ccc(C(=O)N3CC4(COC4)C3)cc2OC2CCCC2)ncc1Cl [Example 188]: 6.3
COc1cc(C(=O)N2CCOCC2)ccc1Nc1ncc(Cl)c(N2CCCC2)n1 [Example 255]: 17.9
CNc1nc(Nc2ccc(C(=O)N3CCOCC3)cc2C2CC2)ncc1Cl [Example 193]: 23.9
CNc1nc(Nc2ccc(C(=O)N3CCC3)cc2OC)ncc1C#N [Example 212]: 26.4
COCCNc1nc(Nc2ccc(C(=O)N3CCOCC3)cc2OC(C)C)ncc1Br [Example 186]: 13.5

---

- target.system: LRRK2 (Homo sapiens (Human), UniProt Q5S007, G2019S)
- assay.procedure: In Vitro LRRK2 LabChip Assay
- Format: biochemical
- assay.context: Table 4
pKi: −log10 of the molar value.
value.kind: pKi

CCNc1nc(Nc2cc(F)c(C(=O)N(C)C)cc2OC)ncc1C#N: 8.01
COc1cc(C(=O)N2CCOCC2)ccc1Nc1ncc(Cl)c(OC)n1: 7.98
COc1nc(Nc2ccc(C(=O)N3CCOCC3)cc2OC2CC2)ncc1Br: 8.60
CNc1nc(Nc2ccc(C(=O)NCC3CC3)cc2OC)ncc1C#N: 8.38
COc1nc(Nc2ccc(C(=O)N3CCOCC3)cc2OC2CCC2)ncc1Br: 8.55

---

Listed here are compounds together with their documented Ki.
- target.system: LRRK2 (Homo sapiens (Human), UniProt Q5S007, G2019S)
- assay.procedure: In Vitro LRRK2 LabChip Assay
- Type: biochemical
- assay.context: Table 4
- Protocol: In Vitro LRRK2 LabChip Assay This assay was used to determine a compound's potency in inhibiting activity of LRRK2 by determining, Kiapp, IC50, or percent inhibition values. […] The relative amounts of each were quantitated by fluorescence intensity. LRRK2 Ki was determined according to the equation: Y=V0*(1−((x+Ki*(1+S/Km)+Et)/(2*Et)−(((x+Ki*(1+S/Km)+Et)^2−(4*Et*x))^0.5)/(2*Et))). […] The plate was incubated for 2 hours in the dark. […] Results were read on the LabChip 3000. […]
value.kind: Ki

CNc1nc(Nc2ccc(C(=O)N3CC4CC3CO4)cc2OC)ncc1Cl (stereo not drawn): 4.5 nM
CNc1nc(Nc2ccc(C(=O)N3CCOCC3)cc2C)ncc1Cl: 7.4 nM
CNc1nc(Nc2cc(OC)c(C(=O)NC3CC3)cc2Cl)ncc1C(F)(F)F: 5.2 nM
COCCNc1nc(Nc2ccc(C(=O)N3CCOCC3)cc2OCC(F)(F)F)ncc1Cl: 9.6 nM
CCNc1nc(Nc2cc(OC)c(C(=O)N3CCOCC3)cc2F)ncc1C(F)(F)F: 1.4 nM
CNc1nc(Nc2ccc(C(=O)N(C)C)cc2OC)ncc1Cl: 6.1 nM
CNc1nc(Nc2ccc(C(=O)N3CC(N4CCOCC4)C3)cc2OC)ncc1Cl: 2.7 nM
CNc1nc(Nc2ccc(C(=O)N3CCOC(CC(C)C)C3)cc2OC)ncc1Cl (stereo not drawn): 4.2 nM
CNc1nc(Nc2cc(OC)c(C(=O)NCCCN)cc2Cl)ncc1Cl: 3.8 nM

---

- target.system: LRRK2 (Homo sapiens (Human), UniProt Q5S007, G2019S)
- assay.procedure: In Vitro LRRK2 LabChip Assay
- Type: biochemical
- assay.context: Table 4
pKi: −log10 of the molar value.
value.kind: pKi

CNc1nc(Nc2ccc(C(=O)N3CCCC(C(F)(F)F)C3)cc2OC)ncc1Cl (stereo not drawn): 8.55
COCCNc1nc(Nc2ccc(C(=O)N3CCOCC3)cc2OC)ncc1Br: 8.39
CNc1nc(Nc2cc(OC)c(C(=O)N(C)CCO)cc2Cl)ncc1Cl: 8.11
CNc1nc(Nc2cc(OC)c(C(=O)N3CCC(O)C3)cc2Cl)ncc1Cl (stereo not drawn): 8.07
CNc1nc(Nc2ccc(C(=O)N3CCNCC3)cc2OC)ncc1Cl: 8.55
CNc1nc(Nc2ccc(C(=O)N3CCC(O)CC3)cc2C)ncc1Cl: 8.21
CNc1nc(Nc2cc(OC)c(C(=O)NCC(C)(C)O)cc2Cl)ncc1C(F)(F)F: 8.10
COc1cc(C(=O)N2CCOCC2)ccc1Nc1ncc(Cl)c(NCC(C)OC)n1 (stereo not drawn): 8.02
CNc1nc(Nc2ccc(C(=O)N(C)C(C)C)cc2OC)ncc1C#N: 8.17

---

- target.system: LRRK2 (Homo sapiens (Human), UniProt Q5S007, G2019S)
- assay.procedure: In Vitro LRRK2 LabChip Assay
- Assay type: biochemical
- assay.context: Table 4
pKi: −log10 of the molar value.
Tag: T if measured pKi is not below 8, F if it is.

COc1cc(C(=O)N2CCOCC2)ccc1Nc1ncc(Cl)c(NC2CCOC2)n1 (stereo not shown): F
CCC1(CC)CN(C(=O)c2ccc(Nc3ncc(Cl)c(NC)n3)c(OC)c2)CCO1: T
CNc1nc(Nc2cc(OC)c(C(=O)NC3CCN(C)CC3)cc2Cl)ncc1Cl: T
CNc1nc(Nc2ccc(C(=O)N3CCOCC3)cc2OC)ncc1C1CC1 [Example 66]: F
CCOc1cc(C(=O)N2CCOCC2)ccc1Nc1ncc(Cl)c(NC)n1: T
CNc1nc(Nc2ccc(C(=O)N3CCOCC3)cc2OC)ncc1C1CC1 [Example 103]: F
CNc1nc(Nc2cc(OC)c(C(=O)N3CCOCC3)cc2F)ncc1C(F)(F)F: T
COc1cc(C(=O)N2CCOCC2)ccc1Nc1ncc(C2CC2)c(OC)n1: F
CNc1nc(Nc2ccc(C(=O)N3CCOCC3)cc2O)ncc1Cl: F
COc1cc(C(=O)N2CCOCC2)ccc1Nc1ncc(Cl)c(NCC(C)C)n1: T
CNc1nc(Nc2cc(OC)c(C(=O)NC3COC3)cc2Cl)ncc1C(F)(F)F: T
CNc1nc(Nc2cc(F)c(C(=O)N3CCC(OC)C3)cc2OC)ncc1C(F)(F)F (stereo not shown): T
COc1cc(C(=O)N2CCOCC2)ccc1Nc1ncc(I)c(OC)n1: T
CNc1nc(Nc2cc(OC)c(C(=O)NC(C)(C)C)cc2Cl)ncc1Cl: F
CNc1nc(Nc2ccc(C(=O)N3CCOCC3)cc2OC2CC2)ncc1Cl: T
CNc1nc(Nc2ccc(C(=O)NCCCN)cc2OC)ncc1Cl: T
CNc1nc(Nc2ccc(C(=O)N3CCN(C(C)=O)CC3)cc2OC)ncc1Cl: T
COc1cc(C(=O)N2CCOCC2)ccc1Nc1ncc(Cl)c(NC2(C)CCC2)n1: T
CNc1nc(Nc2ccc(C(=O)N3CCCCC3)cc2OC)ncc1Cl: T
